// data source = ChEMBL document CHEMBL4257575

species: Homo sapiens; assay: Inhibition of P-gp in human LCC6MDR cells assessed as potentiation of paclitaxel-induced cytotoxicity by measuring fold reduction in paclitaxel IC50 at 1 uM after 5 days by MTS assay relative to paclitaxel alone; type: cell-based
So I've got a bunch of compounds here, and I need their Ratio IC50 values.
Give bare numbers.

| molecular_string | Ratio IC50 |
| --- | --- |
| O=c1cc(-c2ccc(OCCOCCn3cc(CCCOc4ccc5c(=O)cc(-c6ccccc6)oc5c4)nn3)cc2)oc2ccccc12 | 19.1 |
| O=c1cc(-c2ccc(OCCCc3cn(CCOCCOc4ccc(-c5cc(=O)c6ccccc6o5)cc4)nn3)cc2)oc2ccccc12 | 31.7 |
| O=c1cc(-c2ccc(OCCOCCOCCn3cc(CN(CCOc4ccc5c(=O)cc(-c6ccccc6)oc5c4)Cc4ccccc4)nn3)cc2)oc2ccccc12 | 31.7 |

Consider now this further compound.
May I ask what Ratio IC50 has been recorded for Cc1ccc2oc(-c3ccc(OCCCCc4cn(CCOCCOc5ccc6c(=O)cc(-c7ccccc7)oc6c5)nn4)cc3)cc(=O)c2c1 ?
54.7
